Tested on: S. cohnii c.i.
Test: MIC/MBC broth microdilution, S. cohnii
Type: cell-based, Staphylococcus cohnii
Details: water additive EtOH
Reported MIC values follow for various compounds

Example cases with answers are listed next.
[
  {
    "COMPOUND_STRING": "CC(C)[C@@H](CNC(=O)C(=Cc1ccccc1)c1ccccc1)NC(=O)[C@H](CCCNC(=N)N)NC(=O)[C@H](CCCCNC(=N)N)NC(=O)OCc1ccccc1",
    "REPORTED_RESULT": "16 µg/mL"
  },
  {
    "COMPOUND_STRING": "C=CCC(=O)NC[C@@H](NC(=O)[C@H](CC(C)C)NC(=O)[C@H](CCCNC(=N)N)NC(=O)OCc1ccccc1)C(C)C",
    "REPORTED_RESULT": "> 512 µg/mL"
  }
]

For the next question, use this compound.
The compound listed as CC(C)C[C@H](NC(=O)[C@H](CCCNC(=N)N)NC(=O)OCc1ccccc1)C(=O)N[C@H](CNC(=O)C(=Cc1ccccc1)c1ccccc1)C(C)C has a reported MIC of 32 µg/mL

* * *

Reported MIC values follow for various molecules
Tested on: P. aeruginosa ATCC 10145
Assay: MIC/MBC broth microdilution, P. aeruginosa
Type: cell-based
Details: water additive EtOH
Note: unit µg/mL is implicit; provide only the numeric part.

Example cases with answers are listed next.
[
  {
    "COMPOUND_STRING": "CC[C@@H](CNC(=O)/C=C/c1ccccc1)NC(=O)[C@H](CC(C)C)NC(=O)[C@H](CCCNC(=N)N)NC(=O)OCc1ccccc1",
    "ASSAYED_TARGET": "P. aeruginosa ATCC 10145",
    "MEASURED_PROPERTY": "MIC",
    "UNIT_ABBREVIATION": "µg/mL",
    "REPORTED_RESULT": 256
  },
  {
    "COMPOUND_STRING": "Cc1ccccc1COC(=O)N[C@@H](CCCNC(=N)N)C(=O)N[C@@H](CC(C)C)C(=O)N[C@H](CNC(=O)/C=C/c1ccccc1)C(C)C",
    "ASSAYED_TARGET": "P. aeruginosa ATCC 10145",
    "MEASURED_PROPERTY": "MIC",
    "UNIT_ABBREVIATION": "µg/mL",
    "REPORTED_RESULT": 256
  }
]

For the next question, use this molecule.
The molecule listed as CC(C)[C@@H](CNC(=O)/C=C/c1ccccc1)NC(=O)[C@H](Cc1c[nH]cn1)NC(=O)[C@H](CCCCN)NC(=O)OCc1ccccc1 has a reported MIC of 512

* * *

System: S. mutans c.i.
Test: MIC/MBC broth microdilution, S. mutans
Format: cell-based, Streptococcus mutans
Conditions: water additive DMSO
Non-standard residues stand in square brackets, D forms with d. Residues, ends and D or L forms follow the SMILES beside them. *: point of attachment. NHPhenethyl = c1ccc(CCN*)cc1; β3hV = CC(C)[C@H](N)CC(=O)O; Cbz = O=C(OCc1ccccc1)*
Reported MIC values follow for various compounds

Example cases with answers are listed next.
[
  {
    "COMPOUND": "CC(C)[C@H](NC(=O)[C@H](Cc1c[nH]cn1)NC(=O)[C@H](CCCCN)NC(=O)OCc1ccccc1)C(=O)NCCc1ccccc1 [Compound A-220] (HELM PEPTIDE1{[O=C(OCc1ccccc1)[*:2]].K.H.V.[c1ccc(CCN[*:1])cc1]}$$$$V2.0)",
    "ASSAYED_TARGET": "S. mutans c.i.",
    "REPORTED_RESULT": "> 512 µg/mL"
  },
  {
    "COMPOUND": "CC(C)[C@@H](CNC(=O)C(=Cc1ccccc1)c1ccccc1)NC(=O)[C@H](CCCNC(=N)N)NC(=O)[C@H](CCCCNC(=N)N)NC(=O)OCc1ccccc1",
    "ASSAYED_TARGET": "S. mutans c.i.",
    "REPORTED_RESULT": "> 512 µg/mL"
  }
]

For the next question, use this compound.
The compound listed as CC(C)C[C@H](NC(=O)[C@H](CCCNC(=N)N)NC(=O)OCc1ccccc1)C(=O)N[C@H](CC(=O)NCCc1ccccc1)C(C)C [Compound A-152] (Cbz-Arg-Leu-[β3hV]-NHPhenethyl) has a reported MIC of > 512 µg/mL

* * *

Tested on: K. pneumoniae ATCC 700603
Test: MIC/MBC broth microdilution, K. pneumoniae
Assay type: cell-based
Details: water additive EtOH
Non-standard residues stand in square brackets, D forms with d. Residues, ends and D or L forms follow the SMILES beside them. *: point of attachment. NHPhenethyl = c1ccc(CCN*)cc1; β3hV = CC(C)[C@H](N)CC(=O)O; Cbz = O=C(OCc1ccccc1)*
MEASURED_PROPERTY: MIC

Example cases with answers are listed next.
[
  {
    "MOLECULE": "C=CCC(=O)NC[C@@H](NC(=O)[C@H](CC(C)C)NC(=O)[C@H](CCCNC(=N)N)NC(=O)OCc1ccccc1)C(C)C",
    "REPORTED_RESULT": "> 512 µg/mL"
  },
  {
    "MOLECULE": "CC(C)[C@H](NC(=O)[C@H](Cc1c[nH]cn1)NC(=O)[C@H](CCCCN)NC(=O)OCc1ccccc1)C(=O)NCCc1ccccc1 [Compound A-220] (HELM PEPTIDE1{[O=C(OCc1ccccc1)[*:2]].K.H.V.[c1ccc(CCN[*:1])cc1]}$$$$V2.0)",
    "REPORTED_RESULT": "> 512 µg/mL"
  }
]

Field MIC (K. pneumoniae ATCC 700603), entry CC(C)C[C@H](NC(=O)[C@H](CCCNC(=N)N)NC(=O)OCc1ccccc1)C(=O)N[C@H](CC(=O)NCCc1ccccc1)C(C)C [Compound A-152] (Cbz-Arg-Leu-[β3hV]-NHPhenethyl) : > 512 µg/mL

* * *

System: fibroblasts (46BR.1N)
Assay: LDH cytotoxicity test, fibroblasts
Format: cell-based
Details: LDH, 48 h
Residues, ends and D or L forms follow the SMILES beside them.
MEASURED_PROPERTY: concentration at which cytotoxic effect starts (µg/mL)
Note: unit µg/mL is implicit; provide only the numeric part.

Example cases with answers are listed next.
[
  {
    "COMPOUND": "CC(C)C[C@H](NC(=O)[C@H](CCCNC(=N)N)NC(=O)OCc1ccccc1)C(=O)N[C@H](C(=O)NCCc1ccccc1)C(C)C [Compound A-196] (HELM PEPTIDE1{[O=C(OCc1ccccc1)[*:2]].R.L.V.[c1ccc(CCN[*:1])cc1]}$$$$V2.0)",
    "REPORTED_RESULT": 150
  },
  {
    "COMPOUND": "CC(C)[C@@H](CNC(=O)C(=Cc1ccccc1)c1ccccc1)NC(=O)[C@H](Cc1c[nH]cn1)NC(=O)[C@H](CCCCNC(=N)N)NC(=O)OCc1ccccc1",
    "REPORTED_RESULT": 150
  }
]

For the next question, use this compound.
The compound listed as Cc1ccccc1COC(=O)N[C@@H](CCCNC(=N)N)C(=O)N[C@@H](CC(C)C)C(=O)N[C@H](CNC(=O)/C=C/c1ccccc1)C(C)C has a reported concentration at which cytotoxic effect starts of 100

* * *

Reported MIC values follow for various molecules
Tested on: S. pyogenes ATCC 19615
Experiment: MIC/MBC broth microdilution, S. pyogenes
Format: cell-based, Streptococcus pyogenes
Conditions: S. pyogenes, water additive EtOH
Note: unit µg/mL is implicit; provide only the numeric part.

The molecule listed as CC(C)C[C@H](NC(=O)[C@H](CCCNC(=N)N)NC(=O)OCc1ccccc1)C(=O)N[C@H](CNC(=O)/C=C/c1ccccc1)C(C)C has a reported MIC of 8

The molecule listed as CC(C)[C@@H](CNC(=O)C(=Cc1ccccc1)c1ccccc1)NC(=O)[C@H](CCCNC(=N)N)NC(=O)[C@H](CCCNC(=N)N)NC(=O)OCc1ccccc1 has a reported MIC of 8

The molecule listed as CC(C)[C@@H](CNC(=O)C(=Cc1ccccc1)c1ccccc1)NC(=O)[C@H](CCCNC(=N)N)NC(=O)[C@H](CCCCNC(=N)N)NC(=O)OCc1ccccc1 has a reported MIC of 4

* * *

System: S. agalactiae ATCC 27956
Assay: MIC/MBC broth microdilution, S. agalactiae
Type: cell-based, Streptococcus agalactiae
Conditions: S. agalactiae, water additive EtOH
Residues, ends and D or L forms follow the SMILES beside them.
Reported MIC values follow for various compounds
Note: unit µg/mL is implicit; provide only the numeric part.

The compound listed as CC(C)[C@@H](CNC(=O)C(=Cc1ccccc1)c1ccccc1)NC(=O)[C@H](CCCNC(=N)N)NC(=O)[C@H](CCCCNC(=N)N)NC(=O)OCc1ccccc1 [Compound A-192] has a reported MIC of 32

The compound listed as CC(C)[C@H](NC(=O)[C@H](CCCNC(=N)N)NC(=O)[C@H](CCCNC(=N)N)NC(=O)OCc1ccccc1)C(=O)NCCc1ccccc1 [Compound A-221] (HELM PEPTIDE1{[O=C(OCc1ccccc1)[*:2]].R.R.V.[c1ccc(CCN[*:1])cc1]}$$$$V2.0) has a reported MIC of 256

The compound listed as CC(C)[C@@H](CNC(=O)C(=Cc1ccccc1)c1ccccc1)NC(=O)[C@H](Cc1c[nH]cn1)NC(=O)[C@H](CCCCNC(=N)N)NC(=O)OCc1ccccc1 [Compound A-193] has a reported MIC of 32
